measurementDescription: Pharmacokinetics of intranasal esketamine 28, 56, 84 mg in healthy subjects (Example 9)
assayContext: both, human, plasma, inhaled or intranasal, 28 mg, tmax, esketamine in plasma, healthy subjects, single intranasal 28 mg (Treatment A), median
measurementType: Tmax (min)

INSERT INTO measurements (substancesmiles, val) VALUES
  ('CN[C@]1(c2ccccc2Cl)CCCCC1=O', 40.2);

----------
measurementDescription: Pharmacokinetics of esketamine nasal spray, data assembled from 14 Phase 1 studies (Example 10)
assayContext: human, plasma, inhaled or intranasal, 56 mg, Tmax, young adult subjects, single dose nasal spray 56 mg, range of median values
measurementType: Tmax

INSERT INTO assay_data (substancesmiles, measurementtype, val) VALUES
  ('CN[C@]1(c2ccccc2Cl)CCCCC1=O', 'Tmax', '30 to 46.2 min');

----------
measurementDescription: Pharmacokinetics of intranasal esketamine 28, 56, 84 mg in healthy subjects (Example 9)
assayContext: both, human, plasma, inhaled or intranasal, 56 mg
measurementType: Cmax (ng/mL)

INSERT INTO results (substancesmiles, val) VALUES
  ('CN[C@]1(c2ccccc2Cl)CCCCC1=O', 74.1);

----------
measurementDescription: Pharmacokinetics of intranasal esketamine 28, 56, 84 mg in healthy subjects (Example 9)
assayContext: both, human, plasma, inhaled or intranasal, 84 mg
measurementType: AUC(0-inf) (ng·h/mL)

INSERT INTO measurements (compound, resultunits, val) VALUES
  ('CN[C@]1(c2ccccc2Cl)CCCCC1=O [esketamine]', 'ng·h/mL', 329);

----------
measurementDescription: Pharmacokinetics of intranasal esketamine 28, 56, 84 mg in healthy subjects (Example 9)
assayContext: both, human, plasma, inhaled or intranasal, 28 mg
measurementType: AUC(0-t) (ng·h/mL)

INSERT INTO assay_data (substancesmiles, val) VALUES
  ('CN[C@]1(c2ccccc2Cl)CCCCC1=O', 128);

----------
measurementDescription: Pharmacokinetics of esketamine nasal spray, data assembled from 14 Phase 1 studies (Example 10)
assayContext: human, plasma, inhaled or intranasal, 56 mg
measurementType: Cmax

INSERT INTO measurements (compound, val) VALUES
  ('CN[C@]1(c2ccccc2Cl)CCCCC1=O [esketamine]', '71.8 to 117 ng/mL');

----------
measurementDescription: Pharmacokinetics of esketamine nasal spray, data assembled from 14 Phase 1 studies (Example 10)
assayContext: human, plasma, inhaled or intranasal, 84 mg, Tmax, young adult subjects, single dose nasal spray 84 mg, range of median values
measurementType: Tmax

INSERT INTO measurements (molecule, measurementtype, val) VALUES
  ('CN[C@]1(c2ccccc2Cl)CCCCC1=O [esketamine]', 'Tmax', '31.8 to 49.8 min');

----------
measurementDescription: Pharmacokinetics of intranasal esketamine 28, 56, 84 mg in healthy subjects (Example 9)
assayContext: both, human, plasma, inhaled or intranasal, 56 mg
measurementType: AUC(0-t) (ng·h/mL)

INSERT INTO assay_data (substancesmiles, measurementtype, val) VALUES
  ('CN[C@]1(c2ccccc2Cl)CCCCC1=O', 'AUC(0-t)', 216);

----------
measurementDescription: Pharmacokinetics of intranasal esketamine 28, 56, 84 mg in healthy subjects (Example 9)
assayContext: both, human, plasma, inhaled or intranasal, 56 mg
measurementType: AUC(0-inf) (ng·h/mL)

INSERT INTO results (substancesmiles, resultunits, val) VALUES
  ('CN[C@]1(c2ccccc2Cl)CCCCC1=O', 'ng·h/mL', 222);
